system: CML-T1 (Chronic Myelogenous Leukemia); assay: combination Emax (second highest fraction inhibited in the dose matrix, 72 h); higher = more inhibition; extreme values may be limits of the assay
EXPERIMENTAL_READOUT: combination Emax
Respond numerically, and do not add a unit to the figure.

Quick check: combination Emax of NC1(C(=O)N[C@@H](CCO)c2ccc(Cl)cc2)CCN(c2ncnc3[nH]ccc23)CC1 [Capivasertib] + C[C@@H]1COCCN1C2=NC(=NC(=C2)C3(CC3)[S@](=N)(=O)C)C4=C5C=CNC5=NC=C4 [AZD6738] (first compound max 10 µM, 7x7, partner max 10 µM) ? 0.988

GET /values?readout=combination Emax&item= CN(CCO)CC[C@H](CSc1ccccc1)Nc1ccc(S(=O)(=O)NC(=O)c2ccc(N3CCC([C@@H](O)c4ccccc4-c4ccc(Cl)cc4)CC3)cc2)cc1S(=O)(=O)C(F)(F)F [AZD4320] + C[C@@H]1COCCN1C2=NC(=NC(=C2)C3(CC3)[S@](=N)(=O)C)C4=C5C=CNC5=NC=C4 [AZD6738] (first compound max 1 µM, 7x7, partner max 10 µM) 1

Record request: combination Emax value, item C[C@@H](Oc1cc(-c2cnn(C3CCNCC3)c2)cnc1N)c1c(Cl)ccc(F)c1Cl [Crizotinib] + Cn1cnc2c(F)c(Nc3ccc(Br)cc3Cl)c(C(=O)NOCCO)cc21 [Selumetinib] (first compound max 10 µM, 7x7, partner max 10 µM) 0.957
